Just for reference, patent US20140121258A1 is where these values come from.

- tested_target: human prostanoid EP1 receptor (Homo sapiens)
- Construct: expressed in transfected cells
- Sequence (P34995 whole entry): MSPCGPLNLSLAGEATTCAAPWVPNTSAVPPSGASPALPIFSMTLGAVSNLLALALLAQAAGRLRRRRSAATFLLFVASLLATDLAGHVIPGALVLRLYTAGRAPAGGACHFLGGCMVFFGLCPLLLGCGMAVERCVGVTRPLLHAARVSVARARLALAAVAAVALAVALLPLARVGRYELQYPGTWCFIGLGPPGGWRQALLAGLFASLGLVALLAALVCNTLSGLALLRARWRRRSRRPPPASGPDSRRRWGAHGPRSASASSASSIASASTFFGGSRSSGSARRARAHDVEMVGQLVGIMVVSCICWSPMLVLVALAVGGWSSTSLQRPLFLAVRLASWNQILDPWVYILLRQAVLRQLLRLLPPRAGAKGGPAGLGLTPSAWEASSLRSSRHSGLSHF
- method_summary: FLIPR Ca2+ signaling antagonist assay, EP1 receptor stable cell line
- Assay type: cell-based
- study_conditions: HEK-293 EBNA stable cells, standard agonist PGE2; NA = inactive (no antagonism or Kb≧10,000 nM)
# Kb per entry

| chem_smiles | Kb [nM] |
| --- | --- |
| CCC(CC)COc1ccc(Br)cc1Cn1nc(CCC(=O)O)cc1C | 40 |
| Cc1cc(CCC(=O)O)nn1Cc1cc(Br)ccc1OCC1CCCC1 | 24 |
| CCC(CC)COc1ccc(Cl)cc1Cn1nc(CCC(=O)O)cc1C | 71 |
| Cc1cc(CCC(=O)O)nn1Cc1cc(C(F)(F)F)ccc1OCC1CCCC1 | 24 |
| Cc1cc(CCC(=O)NS(=O)(=O)C(F)(F)F)nn1Cc1cc(Cl)ccc1OCc1ccc(Cl)cc1 | 22 |
| Cc1cc(CCC(=O)O)nn1Cc1cc(Cl)ccc1OCC1CCCC1 | 80 |
